All values here come from patent US20260116991A1.

Target: T1, polypeptide GC3pep (human)
T1 construct: also called membrane proximal polypeptide GC3pep
T1 peptide: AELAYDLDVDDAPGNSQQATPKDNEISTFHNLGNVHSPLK
Experiment: ELISA, GC3pep coated, antibody 0.001 nM

[
  {
    "Binder": "F1.145.22 (antibody, human IgG1, kappa, V domains shown, human-murine chimeric antibody) VH: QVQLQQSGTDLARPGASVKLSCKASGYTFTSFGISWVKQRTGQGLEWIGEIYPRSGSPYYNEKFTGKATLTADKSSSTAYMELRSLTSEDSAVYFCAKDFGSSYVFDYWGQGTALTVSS VL: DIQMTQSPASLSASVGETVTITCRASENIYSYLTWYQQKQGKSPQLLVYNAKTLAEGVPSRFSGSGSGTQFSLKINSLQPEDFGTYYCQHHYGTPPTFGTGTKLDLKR",
    "Unit Symbol": "OD450 nm",
    "OD450 nm": 0.04
  },
  {
    "Binder": "F1.73.9 (antibody, human IgG1, kappa, V domains shown, human-murine chimeric antibody) VH: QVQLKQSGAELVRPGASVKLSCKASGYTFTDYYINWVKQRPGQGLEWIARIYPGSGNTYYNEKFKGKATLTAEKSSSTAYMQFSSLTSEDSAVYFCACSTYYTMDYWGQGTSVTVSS VL: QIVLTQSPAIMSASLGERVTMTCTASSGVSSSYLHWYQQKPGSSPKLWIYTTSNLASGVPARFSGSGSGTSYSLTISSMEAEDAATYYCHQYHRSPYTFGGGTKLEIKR",
    "Unit Symbol": "OD450 nm",
    "OD450 nm": 0.05
  }
]
